// provenance: PubChem BioAssay AID588726

molecular target: Fructose-bisphosphate aldolase (Mycobacterium tuberculosis (strain ATCC 25618 / H37Rv)) (UniProt P9WQA3); experiment: Mtb FBA enzyme inhibitors, primary screen, biochemical, fluorescence, strain H37Rv (AID 588726);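 note: 0% = vehicle and 100% = reference inhibitor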; settings: purified M. tuberculosis FBA, fluorescence read-out, at 1 µM
Sequence (P9WQA3 whole entry, looked up): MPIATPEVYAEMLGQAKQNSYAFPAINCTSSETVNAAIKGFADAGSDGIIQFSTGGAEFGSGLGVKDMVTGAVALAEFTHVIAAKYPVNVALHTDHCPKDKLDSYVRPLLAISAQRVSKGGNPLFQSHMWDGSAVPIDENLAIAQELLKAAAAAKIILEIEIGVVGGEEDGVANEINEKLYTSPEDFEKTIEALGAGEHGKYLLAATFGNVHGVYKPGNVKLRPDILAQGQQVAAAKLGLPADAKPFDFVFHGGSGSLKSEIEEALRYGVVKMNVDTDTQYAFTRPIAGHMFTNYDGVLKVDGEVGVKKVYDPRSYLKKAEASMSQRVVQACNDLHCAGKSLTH
Out of some 360,000 compounds screened, about 8,200 (2.3%) were called active. Cut-off read from the data, not from the text of the source: active = inhibition above about 27%; inactive = the rest. The list comes from a sample in which actives are over-represented; it also holds close analogues and randomly drawn compounds.
Reply using exactly one outcome from active, inactive

CC1CCc2c(c3ccccc3[nH]c2=O)O1 (configuration not stated) ... inactive
COC(=O)c1ccccc1NC(=O)CN(Cc1ccccc1)S(C)(=O)=O ... inactive
O=c1cc(CN2CCCCCCC2)c2c(ccc3ccccc32)o1 ... inactive
CC1(C)CN(c2ccc(-c3ccnc4ncnn34)cc2)C1=O ... active
Cn1cc(-c2ccccc2)cc(C#N)c1=O ... active
N#CCc1c[nH]c2ccc([N+](=O)[O-])cc12 ... inactive
Nc1c(-c2ccc(F)cc2)cnc2ncnn12 ... inactive
Cn1cccc1C(C#N)c1ccccc1C#N (configuration not stated) ... inactive
CC(C)C(=O)Nc1oc(-c2ccccc2)cc1C#N ... inactive
COC(=O)CCNC(=O)c1ccc2[nH]c(C)c(C)c2c1 ... inactive

Exercise: Kindly provide the recorded test outcome for the following compound: CCCCNC(=O)c1ccc(-n2c(=S)[nH]c3ccccc3c2=O)cc1
Solution: inactive

Exercise: How about CCCc1cc(=O)oc2c(C)c(OC(C)C(=O)NCC(O)c3ccccc3)ccc12 (configuration not stated) ?
Solution: inactive

---

molecular target: Fructose-bisphosphate aldolase (Mycobacterium tuberculosis (strain ATCC 25618 / H37Rv)); assay: Mtb FBA enzyme inhibitors, primary screen, biochemical, fluorescence, strain H37Rv (AID 588726);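 note: 0% = vehicle and 100% = reference inhibitor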; settings: purified M. tuberculosis FBA, fluorescence read-out, at 1 µM, active compounds read high
In all, about 360,000 compounds went through this assay and about 8,200 (2.3%) were called active. What follows is part of a selection rich in actives, with near analogues and random picks from the rest.
Reported inhibition values for a set of compounds
Entry rule: numbers only, all in %.

O=C(NCCc1ccccc1)c1ccc2c(c1)N(Cc1ccccc1)CCS2 ... 43.6
O=c1onc(-c2cccs2)n1Cc1ccccc1 ... 1.37
Cc1nnc(NC2=NCCCCC2)o1 ... 2.72
COc1ccc(S(=O)(=O)Nc2ccc3oc(C)c(C(C)=O)c3c2)cc1 ... 0.55
CC1CCCN(c2ccc(C(=O)NCCc3ccccc3)cn2)C1 (stereo not drawn) ... 2.27

Exercise: GET /values?readout=inhibition&item= CCC1CCCCN1C(=O)CSc1nc2c(c(=O)n1C)SC(C)C2 (stereo not drawn)
Solution: -1.89

Exercise: How about COc1ccc(C(F)(F)F)cc1N/C=C\c1nnnn1-c1ccc(C)cc1 ?
Solution: 1.79

Exercise: How about CC1(C)Cc2c(C#N)c(SCc3nc4ccccc4[nH]3)nc(N3CCOCC3)c2CO1 ?
Solution: 29.3

Exercise: How about CC(C)c1ccc(C(=O)OC2CCOC2=O)cc1 (stereo not drawn) ?
Solution: -2.02

Exercise: How about Brc1cnc(N2CCCC2)nc1N1CCCCC1 ?
Solution: 4.23

Exercise: How about CCn1c(SCC(=O)Nc2nc(C)cs2)nnc1C(C)NC(=O)c1ccccc1 (stereo not drawn) ?
Solution: 0.82

Exercise: How about c1ccc(-c2cc(N3CCCCC3)c3ccccc3n2)cc1 ?
Solution: 0.14

Exercise: How about CCOC(=O)N1CCN(C(=O)c2ccc3c(c2)N(Cc2ccc(C)cc2)CCS3)CC1 ?
Solution: 7.61

Exercise: How about CCOC(=O)COc1cc(OCC(=O)OCC)c2c(=O)cc(-c3ccccc3)oc2c1 ?
Solution: 39.2

Exercise: How about CC(C)C(=O)N1CCN(c2nc(-c3ccccc3)c3c(c2C#N)CC(C)(C)OC3)CC1 ?
Solution: 18.4

Exercise: How about COc1ccc2c(CC(=O)OCC(=O)Nc3ccccc3[N+](=O)[O-])coc2c1 ?
Solution: 2.62

Exercise: How about Cc1cc(NC(=O)CN2C(=O)NC(CCc3ccccc3)C2=O)no1 (stereo not drawn) ?
Solution: 0.86

Exercise: How about Cc1ccc(C(=O)NC2CCN(C(=O)Nc3ccccc3Cl)CC2)cc1 ?
Solution: -1.09

Exercise: How about COC(=O)[C@H]1C[C@H](OC(=O)NCc2ccccc2)[C@@]2(O)CN(S(=O)(=O)c3ccc(C)cc3)CC2[C@H]1C(=O)OC (stereo partly drawn) ?
Solution: 0.56

Exercise: How about Cc1ccc(S(=O)(=O)N2C[C@]3(O)C[C@@H]4C(=O)N(c5ccccc5)C(=O)[C@@H]4C[C@]3(OC(=O)NC3CC3)C2)cc1 ?
Solution: 0.49

Exercise: How about Cn1nc(C(C)(C)C)c([N+](=O)[O-])c1C(N)=O ?
Solution: 1.86

Exercise: How about CN(CCC1CCOCC1)C(=O)CC1C(=O)NCCN1Cc1cccc(F)c1 (stereo not drawn) ?
Solution: 5.7

Exercise: How about COc1ccc(CCNC(=O)/C(C#N)=C2\N=C(NC(=O)c3cccs3)c3ccccc32)cc1 ?
Solution: -0.53

Exercise: How about O=C(NC1CCCC1)C(c1ccco1)N(C(=O)c1ccco1)c1ccc(F)cc1 (stereo not drawn) ?
Solution: -0.27

Exercise: How about O=C(OC1CCOC1=O)c1ccc(-c2nc3ccccc3s2)s1 (stereo not drawn) ?
Solution: 36.7
